Values compiled from paper PMC12597552.

What pIC50 was measured for each of the following?
Target or system: CYP2C9 (Homo sapiens, UniProt P11712)
Sequence (P11712 whole entry): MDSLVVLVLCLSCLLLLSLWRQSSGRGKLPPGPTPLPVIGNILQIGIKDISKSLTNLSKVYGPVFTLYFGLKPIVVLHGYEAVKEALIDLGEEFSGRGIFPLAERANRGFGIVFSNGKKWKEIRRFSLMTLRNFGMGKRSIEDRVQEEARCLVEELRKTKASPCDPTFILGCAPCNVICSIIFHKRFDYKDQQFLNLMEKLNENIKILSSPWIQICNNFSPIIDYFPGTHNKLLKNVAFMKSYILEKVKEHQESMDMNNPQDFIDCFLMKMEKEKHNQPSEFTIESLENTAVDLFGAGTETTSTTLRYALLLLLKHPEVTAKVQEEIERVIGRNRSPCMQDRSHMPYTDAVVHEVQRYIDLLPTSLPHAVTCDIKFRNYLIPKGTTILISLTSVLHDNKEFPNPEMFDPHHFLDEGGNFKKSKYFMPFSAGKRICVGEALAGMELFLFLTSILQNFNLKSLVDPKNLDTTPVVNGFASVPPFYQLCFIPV
Experiment summary: Inhibition of recombinant CYP2C9-overexpressing microsomes (diclofenac and warfarin probes)
Assay type: in vitro ADME
Design: made in house; host or cells: HEK293 cells (microsomal fraction)
Conditions: IC50,u, diclofenac -> 4′-hydroxydiclofenac; rec CYP2C9 microsomes; unbound, adjusted with fu,inc of Δ9-THC / 11-OH-Δ9-THC; mean ± SD, 3 experiments
One number for each entry, as −log10 of the molar value.

CCCCCc1cc(O)c2c(c1)OC(C)(C)C1CC=C(C)CC21 (centres unmarked) [Δ8-THC, Δ8-Tetrahydrocannabinol]
7.15

Enter reported pIC50 observed with CYP2C9 (Homo sapiens, UniProt P11712) for CCCCCc1cc(O)c2c(c1)OC(C)(C)C1CC=C(CO)CC21 (centres unmarked) [11-OH-Δ8-THC, 11-hydroxy-Δ8-THC]
6.10

====

Target or system: CYP2C9 (Homo sapiens)
Experiment summary: Inhibition of recombinant CYP2C9-overexpressing microsomes (diclofenac and warfarin probes)
Format: in vitro ADME
Design: made in house; host or cells: HEK293 cells (microsomal fraction)
Conditions: human, recombinant CYP2C9-overexpressing HEK293 microsomes, pH 7.4, probe warfarin (7′-hydroxylation), Ki,u, 7′-hydroxylation of warfarin; rec CYP2C9; unbound, adjusted with fu,inc; mean ± SD
Experimental endpoint: Ki

For the molecule CCCCCc1cc(O)c2c(c1)OC(C)(C)C1CC=C(C)CC21 (stereo not shown) [Δ8-THC, Δ8-Tetrahydrocannabinol] , what Ki is on record?
0.16 µM

====

What IC50 shift at 30 min was measured for each of the following?
Target or system: CYP3A4 (Homo sapiens, UniProt P08684)
Sequence (P08684 whole entry): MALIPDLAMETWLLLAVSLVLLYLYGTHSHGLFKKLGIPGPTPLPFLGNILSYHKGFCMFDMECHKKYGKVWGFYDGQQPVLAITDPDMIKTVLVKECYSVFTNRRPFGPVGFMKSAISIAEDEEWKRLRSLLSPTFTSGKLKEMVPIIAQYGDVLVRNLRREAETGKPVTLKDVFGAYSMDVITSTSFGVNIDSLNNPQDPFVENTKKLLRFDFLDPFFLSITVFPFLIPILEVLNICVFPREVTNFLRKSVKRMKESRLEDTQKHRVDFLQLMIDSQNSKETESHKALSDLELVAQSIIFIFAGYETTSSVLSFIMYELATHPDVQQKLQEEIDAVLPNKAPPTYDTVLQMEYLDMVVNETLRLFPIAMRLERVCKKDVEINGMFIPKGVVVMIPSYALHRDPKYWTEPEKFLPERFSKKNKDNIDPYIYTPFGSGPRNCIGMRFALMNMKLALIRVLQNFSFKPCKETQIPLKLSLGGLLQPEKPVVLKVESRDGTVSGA
Experiment summary: IC50 shift assay in recombinant CYP3A4 microsomes
Type: in vitro ADME
Set-up: made in house
Conditions: recombinant CYP3A4-overexpressing microsomes, probe midazolam (1′-hydroxylation), 1′-hydroxylation of midazolam, rec CYP3A4, 30-min preincubation minus vs plus NADPH, mean ± SD
Give bare numbers.

CCCCCc1cc(O)c2c(c1)OC(C)(C)C1CC=C(CO)CC21 (centres unmarked) [11-OH-Δ8-THC, 11-hydroxy-Δ8-THC]
0.83

Now consider the entry below.
For the molecule CCCCCc1cc(O)c2c(c1)OC(C)(C)C1CC=C(C)CC21 (centres unmarked) [Δ8-THC, Δ8-Tetrahydrocannabinol] , what IC50 shift at 30 min is on record?
0.85

====

Tested on: CYP2C9 and CYP3A4
Experiment summary: IC50,u / Ki,u summarised across all CYP2C9 and CYP3A4 enzyme-substrate pairs
Assay type: in vitro ADME
Conditions: human, pH 7.4, probe diclofenac, warfarin (CYP2C9), midazolam (CYP3A4); recombinant P450-overexpressing microsomes; read-out: IC50,u across all P450 enzyme-substrate pairs
pIC50: −log10 of the molar value.
Experimental endpoint: pIC50

For the molecule CCCCCc1cc(O)c2c(c1)OC(C)(C)C1CC=C(CO)CC21 (stereo not shown) [11-OH-Δ8-THC, 11-hydroxy-Δ8-THC] , what pIC50 is on record?
5.82 to 6.10

====

Test system: CYP2C9 and CYP3A4
Experiment summary: IC50,u / Ki,u summarised across all CYP2C9 and CYP3A4 enzyme-substrate pairs
Assay type: in vitro ADME
Conditions: human, pH 7.4; recombinant microsomes and HLM; read-out: Ki,u across all reactions
pKi: −log10 of the molar value.
Experimental endpoint: pKi

Enter reported pKi observed with CYP2C9 and CYP3A4 for CCCCCc1cc(O)c2c(c1)OC(C)(C)C1CC=C(CO)CC21 (stereo not shown) [11-OH-Δ8-THC, 11-hydroxy-Δ8-THC]
5.92 to 6.40
